B1: TPR 5TU (parent)
chain: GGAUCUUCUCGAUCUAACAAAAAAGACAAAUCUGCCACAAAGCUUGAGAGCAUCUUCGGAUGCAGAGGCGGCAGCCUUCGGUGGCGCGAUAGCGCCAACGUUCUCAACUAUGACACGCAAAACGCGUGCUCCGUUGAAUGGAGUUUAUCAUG

variants of: B1; experiment: polymerase ribozyme fitness, log enrichment relative to wild type (log ratio); higher = more active; in vitro selection for triplet polymerase activity
This sample holds only a part of the variants without activity.
Listed below: polymerase ribozyme fitness (log ratio) values for each entry.
Value type: polymerase ribozyme fitness (log ratio)

Variant designation | Result value
A16U A29C C35U A41C G86A A98U C114U G141U U145G | ≤ -4.2
G50A C57A C85A A91C A98C A121U G128U U135G A142U G143A | ≤ -4.2
G68C C85G G136C | ≤ -4.2
